# Test system: Staphylococcus aureus NRRL B313
# condition-info: agar dilution
A collection of compounds and their measured MIC

compound	study-target	MIC [µg/mL]
CC(C)C[C@@H](N)C(=O)N[C@H]1C(=O)N[C@@H](CC(N)=O)C(=O)N[C@H]2C(=O)N[C@H]3C(=O)N[C@H](C(=O)N[C@H](C(=O)O)c4cc(O)cc(O)c4-c4cc3ccc4O)[C@H](O)c3ccc(c(Cl)c3)Oc3cc2cc(c3O[C@@H]2O[C@H](CO)[C@@H](O)[C@H](O)[C@H]2O)Oc2ccc(cc2Cl)[C@H]1O [Compound 12, Desvancosamine-A51568A]	Staphylococcus aureus NRRL B313	2
CN[C@H](CC(C)C)C(=O)N[C@H]1C(=O)N[C@@H](CC(N)=O)C(=O)N[C@H]2C(=O)N[C@H]3C(=O)N[C@H](C(=O)N[C@H](C(=O)O)c4cc(O)cc(O)c4-c4cc3ccc4O)[C@H](O)c3ccc(c(Cl)c3)Oc3cc2cc(c3O)Oc2ccc(cc2Cl)[C@H]1O [Compound 10, aglucovancomycin]	Staphylococcus aureus NRRL B313	0.5
CC(C)C[C@H](C(=O)N[C@H]1C(=O)N[C@@H](CC(N)=O)C(=O)N[C@H]2C(=O)N[C@H]3C(=O)N[C@H](C(=O)N[C@H](C(=O)[O-])c4cc(O)cc(O)c4-c4cc3ccc4O)[C@H](O)c3ccc(c(Cl)c3)Oc3cc2cc(c3O)Oc2ccc(cc2Cl)[C@H]1O)[N+](C)(C)C [Compound 11, Agluco-M43A]	Staphylococcus aureus NRRL B313	2
